Test: soluble fraction after stress (log2 fold change); higher = more stays soluble; pooled small domains, quantitative proteomics;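 also: 20 min heating vs room temperature control held 20 min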
Settings: stress: 75 degC
Binary call on soluble fraction (log2): met from -0.007 upward, not met beneath that.

Prompt: Does the reported soluble fraction (log2) for HMKLTKPQEVFIQELLKGSSQYEAYLKAYPSKKTWKRNSIDTEASKLFKNAKIKQRYEELLYNIREE fall at or above the -0.007 mark?
Completion: not met

Prompt: Entry HMGGEEKALLFGDVDIREAGEITQRLEQAEIPYELRGDGSSIFVPRSRVMEARMMISADGLL please
Completion: not met

Prompt: Next record, please: HMDSVTVPDISGYSPKAAEDSINNAGLKINEQGLSGSGDGQVVERTSPSAGSKVKKGDSVTVYYSKA
Completion: met

Prompt: Moving on to the next sequence: HMKTITLDEAQEIALAEVDGKVTRAVEETDDGRSYYEFDIITNDQKHELEVDASSGKITKNEIDEDYVPS
Completion: met

Prompt: Quick one: HMDLDIRDDIYRANIPNDYKLQQMQNNIDYDKVLTGYYNNRPEANVIANRTLQLANDVYNRD
Completion: met

Prompt: Follow-up item: HMGMAETTARILQLLGLLQSRRGWSGQELAERLGVTTRSVRRDVERLRELGYPVHASAGHGGGYQLGA
Completion: not met

Prompt: // same read-out, input: HMYYIITNGKYWVIENPIRPGEYMESTKSSNAKQFTFKQAKNLLNARSKKLGWIRNGYSMVGED
Completion: not met

Prompt: Could you do the same for HMTSAHEKAFDLFDGGKLSEKALLIAVGAERSGFELAGDLRLRTLTAFEDGRLSEDAMIKLL , please?
Completion: not met

Prompt: Also check HMAHYPGKVNNELVEFIRSEQRKTPHMTLTGLNRKLQRTYDLTLSESTVRKLVEAETILPLAREPD
Completion: not met

---

Test: soluble fraction after stress (log2 fold change); higher = more stays soluble; pooled small domains, quantitative proteomics
Details: stress: 75 degC
Criterion: soluble fraction (log2) meeting or surpassing -1. Met: true. Not met: false.

For orientation, consider the following solved cases.
HMTMQQGTISRLNHSRGFGFLTTPDGEDLFFHRTNVHETPFARLQVGDRVTYDVQVTPRGTRADKVQLNM: true
HMNPNPFVNLSPRELEVLNLLFKGYGVLEISNELNIGQTTASTFKSRILKKTSTHSVVELIKLAEQYGFIP: true
HMEITRDTVIQWLEAERRSQTWLSKQLGVSVQAVSNWLREKNPQTISASAQITIRALMEEDAAK: false
HMADPLQLLEQQRQDYIQAVTEYLNSHPNAKPIWDVMKKDAGYGDMKLTDIPLGILKKLYITLT: true

Prompt: Determine whether measured soluble fraction (log2) meets or exceeds -1 for HMHPLFRVVLAGEPNGVGLDDWLTRHEAELINGPSAIGVLTVKIAMGRRSFETVLDEIRADGETIFVEPV
Completion: false

Prompt: // query: HMVMATPHNTAKAGDIAKTVIMPGDPLRAKYIADNYLDNAVQFNVVRNIYGYTGVYRGTDISVMASGM
Completion: true

Prompt: Let us now turn to HMSELIDSLTEAVRSAPDAVPLRLHLAELLLADGQRDRAFAQLGQVLAKDPQNARALEMLGVGS
Completion: true

Prompt: Here is the next sequence: HMVLENLKKFIDSKGISVSAFEKSIGMSNNSFRKSLNSGGHIGSDKLENILKIYPELNPVWLLQGEGEML
Completion: true

Prompt: And what about the sequence HMTSDYEPSEKDEKAVIGIAFLRNTDVYDVDIDKAEAIKALKANNDIYQKFVKFFPFVKLPSLYDDFQ ?
Completion: true
